protocol_text: Unbound Cmax in female C57BL/6J mouse lung at 30 mg/kg, po measured after 24 hrs by UPLC-MS/MS analysis
Type: ADME, organism-based
condition_description: in vivo
Binarize fCmax at 500 ng/mL; below is TRUE, at or above is FALSE.

>>> class("Cc1nc(-c2nnn(C)c2NC(=O)O[C@H](C)c2ccccc2Cl)ccc1NC(=O)[C@H]1CCCC[C@@H]1C(=O)O")
"TRUE"
>>> class("Cc1noc(-c2ccc(NC(=O)[C@H]3CCCC[C@@H]3C(=O)O)cn2)c1NC(=O)O[C@H](C)c1ccccc1Cl")
"TRUE"
>>> class("Cc1nc(-c2onc(C)c2Nc2cncc(OC(C)C)n2)ccc1NC(=O)[C@H]1CCCC[C@@H]1C(=O)O")
"FALSE"
>>> class("Cc1nc(-c2onc(C)c2NC(=O)O[C@H](C)c2ccccc2Cl)ccc1NC(=O)[C@H]1CCCC[C@@H]1C(=O)O")
"FALSE"

With those in mind, consider the next compound.
For `Cc1nc(-c2onc(C)c2NC(=O)O[C@H](C)c2ccccc2)ccc1NC(=O)[C@H]1CCCC[C@@H]1C(=O)O` , is the recorded fCmax below the cut-off of 500 ng/mL?
FALSE

Values from ChEMBL document CHEMBL6153155
